- System: HT22 cells
- protocol.details: RSL3-induced ferroptosis in HT22 cells
- Assay type: cell-based
- run.conditions: Mus musculus, HT-22, 24 h, read-out: EC50, inhibition of RSL3-induced death
property.label: EC50 (nM)
Respond with the bare value in nM.

Please tell me: EC50 of C#CCOc1ccc2c(c1)CCN(c1cccc(-c3nc4ccc(N5CCN(C)CC5)cc4[nH]3)c1)C2 [14d] , system HT22 cells?
690

* * *

- target.desc: NCOA4^383–522–FTH1 interaction (Homo sapiens, UniProt Q13772)
- Sequence (Q13772 383-522): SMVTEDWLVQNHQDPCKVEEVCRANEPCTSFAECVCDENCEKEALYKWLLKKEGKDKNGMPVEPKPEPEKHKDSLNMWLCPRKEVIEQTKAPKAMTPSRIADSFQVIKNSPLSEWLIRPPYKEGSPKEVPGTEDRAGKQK
- protocol.details: ELISA for NCOA4^383–522–FTH1 protein-protein interaction
property.label: IC50 (µM)
Respond with the bare value in µM.

I would be grateful if you could share the reported IC50 for `CN1CCN(c2ccc3nc(-c4cccc(N5CCc6cc(F)ccc6C5)c4)[nH]c3c2)CC1` .
3.26
